Tested on: PC-3
testDescription: Antiproliferative activity against human PC3 cells after 72 hrs by MTT assay
Assay type: functional, cell-based
conditions: PC-3, 72 h
Reported pIC50 by item:
A value of pIC50 is the negative decimal logarithm of a concentration given in moles per litre.

Answered cases to consult:
1) C[C@]12[C@H](O)C[C@H]3[C@@H](CC[C@H]4C[C@H]5O[C@@H]6O[C@H](CO)C[C@H](O)[C@]6(O)O[C@@H]5C[C@@]43C=O)[C@@]1(O)CC[C@@H]2C1=CC(=O)OC1 :: 6.05
2) C[C@]12CC[C@H]3[C@@H](CC[C@H]4C[C@@H](O[C@@H]5O[C@H](CO)[C@@H](O)[C@H](O)[C@H]5O)CC[C@@]43CO)[C@@]1(O)CC[C@@H]2C1=CC(=O)OC1 :: 6.00

Query compound follows.
# pIC50 (compound: C[C@@H]1C[C@@H](O[C@@H]2O[C@H](CO)[C@@H](O)[C@H](O)[C@H]2O)[C@]2(O)O[C@@H]3C[C@@]4(C=O)[C@@H](CC[C@@H]5[C@@H]4CC[C@]4(C)[C@@H](C6=CC(=O)OC6)CC[C@]54O)C[C@H]3O[C@@H]2O1 ) is 6.00
